Test system: STK33;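 also: KINOMEscan kinase panel screen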
condition: concentration: 1 μM, replicates: in singlicate; n = 1
quantity_kind: %Inh (%)
Quick reminder: number only, in %, skip the unit.

# count of solved cases: 4
- O=C1NC(=O)C(c2ccc(Cl)cc2)=C1Nc1ccc(O)cc1: 0
- c1ccc(-c2ccnc3[nH]ccc23)cc1: 0
- Cl.Cl.Cl.N#Cc1ccc(CCNc2nccc(-c3cccc(CN4CCNCC4)c3)n2)cc1: 100
- COc1ccc(CSc2nnc(-c3ccc4nccn4c3)o2)cc1C(F)(F)F: 2

Okay, now this molecule:
Look up %Inh for this molecule: Cc1nccc(-c2c(-c3ccc(F)cc3)ncn2CCCN2CCOCC2)n1.Cl
14

All figures here come from paper PMC5540273.
